biological target: T1, recombinant C-terminally truncated RSV (A2 strain) F protein (RSV (A2 strain), UniProt P03420 26-524); experiment: SPR (BIAcore), Fab over immobilised F
T1 construct: extracellular domain; also called truncated F protein; extracellular domain of the F protein from RSV A2
T1 sequence (P03420 26-109, chain 1 of 2): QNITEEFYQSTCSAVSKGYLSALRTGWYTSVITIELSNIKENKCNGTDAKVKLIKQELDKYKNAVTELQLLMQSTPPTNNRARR
T1 sequence (P03420 137-524, chain 2 of 2): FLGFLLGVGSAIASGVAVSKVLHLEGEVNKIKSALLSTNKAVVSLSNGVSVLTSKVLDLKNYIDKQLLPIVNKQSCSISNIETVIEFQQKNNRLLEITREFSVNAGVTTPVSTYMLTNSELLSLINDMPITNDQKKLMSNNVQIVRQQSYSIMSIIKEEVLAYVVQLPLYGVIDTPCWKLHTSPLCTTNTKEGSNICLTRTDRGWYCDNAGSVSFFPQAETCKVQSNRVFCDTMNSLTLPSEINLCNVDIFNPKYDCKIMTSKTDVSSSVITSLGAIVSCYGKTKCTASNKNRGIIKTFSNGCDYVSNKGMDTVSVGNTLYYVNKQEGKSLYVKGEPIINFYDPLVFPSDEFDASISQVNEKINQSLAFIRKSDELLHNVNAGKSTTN
observedProperty: kon (M⁻¹ s⁻¹)

{"binder": "AFFF(1) Fab (Fab, V domains shown, also called AHH(1)) VH: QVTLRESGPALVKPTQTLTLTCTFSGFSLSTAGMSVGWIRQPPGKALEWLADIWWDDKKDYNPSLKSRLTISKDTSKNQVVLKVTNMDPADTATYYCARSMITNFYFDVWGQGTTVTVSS VL: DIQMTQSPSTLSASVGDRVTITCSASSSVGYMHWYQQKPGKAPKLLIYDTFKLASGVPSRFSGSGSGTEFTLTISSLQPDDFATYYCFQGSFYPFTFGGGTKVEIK", "observedProperty": "kon", "unitLabel": "M⁻¹ s⁻¹", "recordedMeasurement": 134000}
{"binder": "W100F Fab (Fab, name in Kabat numbering, V domains shown) VH: QVTLRESGPALVKPTQTLTLTCTFSGFSLSTSGMSVGWIRQPPGKALEWLADIWWDDKKDYNPSLKSRLTISKDTSKNQVVLKVTNMDPADTATYYCARSMITNFYFDVWGQGTTVTVSS VL: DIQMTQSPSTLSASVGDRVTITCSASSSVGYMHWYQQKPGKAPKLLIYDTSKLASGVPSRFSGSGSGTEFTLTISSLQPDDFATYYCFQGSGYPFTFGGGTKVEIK", "observedProperty": "kon", "unitLabel": "M⁻¹ s⁻¹", "recordedMeasurement": 165000}

Data provenance: patent US20110158985A1
